Each recorded value in this set is attributed to patent US9931324B2.

Target: P2X7 (Homo sapiens, UniProt Q99572)
Sequence (Q99572 whole entry): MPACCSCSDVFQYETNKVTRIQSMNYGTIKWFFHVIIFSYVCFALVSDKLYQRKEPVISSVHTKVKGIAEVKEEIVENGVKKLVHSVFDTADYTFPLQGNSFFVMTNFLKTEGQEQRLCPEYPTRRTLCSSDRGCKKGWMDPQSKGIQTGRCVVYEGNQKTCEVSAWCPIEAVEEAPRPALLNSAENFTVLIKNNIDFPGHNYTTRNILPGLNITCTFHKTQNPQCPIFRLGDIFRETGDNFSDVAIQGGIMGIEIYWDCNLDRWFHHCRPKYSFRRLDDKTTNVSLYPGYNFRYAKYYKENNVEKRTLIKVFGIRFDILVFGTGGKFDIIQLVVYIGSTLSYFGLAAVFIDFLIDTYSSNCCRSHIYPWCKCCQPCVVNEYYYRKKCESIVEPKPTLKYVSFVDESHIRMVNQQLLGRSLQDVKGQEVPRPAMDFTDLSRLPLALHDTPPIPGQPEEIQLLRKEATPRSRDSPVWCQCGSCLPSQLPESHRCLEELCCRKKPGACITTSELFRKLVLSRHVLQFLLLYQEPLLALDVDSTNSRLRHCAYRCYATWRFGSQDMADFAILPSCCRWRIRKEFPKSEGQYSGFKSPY
Test: IL-1β release assay in THP-1 cells (sandwich ELISA, BzATP-stimulated)
Type: cell-based
Set-up: endogenous in cells; host or cells: THP-1 cells (PMA-differentiated, LPS-primed)
Conditions: LPS primed, 0.8 mM BzATP, mature IL-1β release, read-out: hTHP-1/IL-ib IC50
pIC50: −log10 of the molar value.
property-label: pIC50

Consider the following illustrative entries.
Ask | Which pIC50 value is on record for COCCc1cc(C(=O)NCC2(O)CCCC(F)(F)C2)c2c(C)cccn12 (stereo not drawn) [Compound 57] ?
Reply | 6.30 to 7.00

Ask | What does the data say about its pIC50? Entry: O=C(NCC1(O)CCCC(F)(F)C1)c1cc(C2CCCO2)n2cccc(Cl)c12 (stereo not drawn) [Compound 54]
Reply | 7.00 to 8.00

Ask | Suppose we examine the compound CC1CC(O)(CNC(=O)c2cc(C3CCOCC3)n3cccc(Cl)c23)CCC1(F)F (stereo not drawn) [Compound 41] ; what pIC50 value has been reported?
Reply | 7.00 to 8.00

Ask | What does the data say about its pIC50? Entry: O=C(NCC1(O)CCC(F)(F)CC1)c1cc(CC2CCOC2)n2cccc(Cl)c12 (stereo not drawn) [Compound 47]
Reply | 7.00 to 8.00

Ask | For O=C(NCC1(O)CCC(F)(F)CC1)c1cc(C2CCC2)n2cccc(Cl)c12 [Compound 12] , what is its reported pIC50?
Reply | 6.30 to 7.00

Ask | Form field: reported pIC50 of CCOCCc1cc(C(=O)NC[C@@]2(O)CCC[C@@H](C)C2)c2c(Cl)cccn12 [Compound 73]
Reply | 7.00 to 8.00

Ask | Entry O=C(NCC1CCC(F)(F)CC1)c1cc(C2=COCC2)n2cccc(Cl)c12 [Compound 14] : reported pIC50 = ?
Reply | 7.00 to 8.00

Ask | Entry O=C(NCC1CCCC(F)(F)C1)c1cc(C2CCCO2)n2cccc(Cl)c12 (stereo not drawn) [Compound 17] : reported pIC50 = ?
Reply | 7.00 to 8.00

Ask | Would you mind telling me what pIC50 value was observed for COCCc1cc(C(=O)NCC2(O)CCCCCC2)c2c(Cl)cccn12 [Compound 35] ?
Reply | 7.00 to 8.00

Ask | What value of measured pIC50 is listed for COCCc1cc(C(=O)NCC2CCC(F)(F)C(C)C2)c2c(Cl)cccn12 (stereo not drawn) [Compound 11] ?
Reply | 7.00 to 8.00

Continuing:
Ask | Would you kindly share the measured pIC50 for COCCc1cc(C(=O)NCC2CCCCCC2)c2c(Cl)cccn12 [Compound 1] ?
Reply | 6.30 to 7.00

Ask | Which pIC50 is listed for O=C(NCC1CCC(F)(F)CC1)c1cc(C2=CCOC2)n2cccc(Cl)c12 [Compound 21] ?
Reply | 6.30 to 7.00

Ask | Entry under review: COCCc1cc(C(=O)NCC2CCCC3(CC3)C2)c2c(Cl)cccn12 (stereo not drawn) [Compound 2] . Reported pIC50?
Reply | 7.00 to 8.00

Ask | Report pIC50 for O=C(NCC1CCC(F)(F)CC1)c1cc(CCO)n2cccc(Cl)c12 [Compound 51] please.
Reply | 6.30 to 7.00

Ask | For the compound O=C(NCC1CCCC(F)(F)C1)c1cc(C2CCOC2)n2cccc(Cl)c12 (stereo not drawn) [Compound 39] , what pIC50 is on record?
Reply | 6.30 to 7.00

* * *

List of pIC50 values.
Molecular target: P2X7 (Homo sapiens, UniProt Q99572)
Test: IL-1β release assay in THP-1 cells (sandwich ELISA, BzATP-stimulated)
Type: cell-based
Design: endogenous in cells; host or cells: THP-1 cells (PMA-differentiated, LPS-primed)
Conditions: LPS primed, 0.8 mM BzATP, mature IL-1β release, read-out: hTHP-1/IL-ib IC50
Description: IL-1β release assay: The activation of P2X7 by ATP leads to a fast transient activation of cells resulting in influx of Ca^2+ followed by conversion of pro-IL-1β to active IL-1β. The functional activity of P2X7 compounds was measured by the release of mature IL-1β in the culture medium of THP-1 cells, detected by sandwich ELISA. […] The cells were centrifuged, supernatant was collected and the presence of mature IL-1β was detected using Dual human IL-1b kit following manufacturer's instruction. […]
pIC50: −log10 of the molar value.

Answered cases to consult:
Ask | Form: Entry = CCOCCc1cc(C(=O)NCC2(O)CCC(F)(F)CC2)c2c(Cl)cccn12 [Compound 69] | System = P2X7 (Homo sapiens, UniProt Q99572) | pIC50 = ____
Reply | 6.30 to 7.00

Ask | Request - read-out pIC50 | tested on P2X7 (Homo sapiens, UniProt Q99572) | compound O=C(NCC1(O)CCCC(F)(F)C1)c1cc(C2CCOC2)n2cccc(Cl)c12 (stereo not drawn) [Compound 65]
Reply | 7.00 to 8.00

Ask | Value wanted: pIC50 (P2X7 (Homo sapiens, UniProt Q99572)) of entry COCCc1cc(C(=O)NCC2(O)CCCC(C)(C)C2)c2c(Cl)cccn12 (stereo not drawn) [Compound 10]
Reply | 7.00 to 8.00

Ask | Item: CCOCCc1cc(C(=O)NCC2(O)CCCC(F)(F)C2)c2c(Cl)cccn12 (stereo not drawn) [Compound 70] Test system: P2X7 (Homo sapiens, UniProt Q99572) Read-out: pIC50 Value: ?
Reply | 7.00 to 8.00

Ask | Checklist item: pIC50 tested on P2X7 (Homo sapiens, UniProt Q99572), entry COCCc1cc(C(=O)NC[C@]2(O)CCCC(F)(F)C2)c2c(Cl)cccn12 [Compound 64] , value?
Reply | 6.30 to 7.00

Next:
Ask | Test system P2X7 (Homo sapiens, UniProt Q99572); read-out pIC50; what value for COCCc1cc(C(=O)NCC2CC(C)CC(F)(F)C2)c2c(Cl)cccn12 (stereo not drawn) [Compound 13] ?
Reply | 7.00 to 8.00

Ask | Lab request: please report pIC50 under test system P2X7 (Homo sapiens, UniProt Q99572) for O=C(NCC1CCC(F)(F)CC1)c1cc(C2CCCO2)n2cccc(Cl)c12 (stereo not drawn) [Compound 23]
Reply | 7.00 to 8.00

Ask | Form entry - test system: P2X7 (Homo sapiens, UniProt Q99572); read-out: pIC50; compound: O=C(NCC1(O)CCC(F)(F)CC1)c1cc(C2CCOC2)n2cccc(Cl)c12 (stereo not drawn) [Compound 61]
Reply | 7.00 to 8.00

Ask | Requested read-out pIC50, target or system P2X7 (Homo sapiens, UniProt Q99572), entry CC1CC(CNC(=O)c2cc(CCO)n3cccc(Cl)c23)CCC1(F)F (stereo not drawn) [Compound 32]
Reply | 7.00 to 8.00

* * *

Molecular target: P2X7 (Homo sapiens, UniProt Q99572)
Assay: Pore permeation assay (YO PRO dye uptake, BzATP-induced)
Format: cell-based
Parameters: expressed in transfected cells; host or cells: HEK293
Settings: HEK293 transfected with human P2X7 receptor, BzATP 10 uM, read-out: hP2X7 IC50
property-label: IC50

Ask | What does the data say about its IC50? Entry: [2H]C([2H])([2H])OCCc1cc(C(=O)NCC2CCC(F)(F)CC2)c2c(Cl)cccn12
Reply | 10 to 100 nM

Ask | Recorded IC50 of O=C(NCC1CCC(F)(F)CC1)c1ccn2cccc(Cl)c12 , please.
Reply | 101 to 500 nM

Ask | So what's the measured IC50 for this one? O=C(NC[C@]1(O)CCCC(F)(F)C1)c1cc(C2CCOC2)n2cccc(Cl)c12 (stereo partly drawn)
Reply | 10 to 100 nM

---
Ask | If you can, please state the reported IC50 value of COCCc1cc(C(=O)NCC2(O)CCC(F)(F)CC2)c2c(Cl)cccn12 .
Reply | 10 to 100 nM

Ask | Looking for the measured IC50 of O=C(NCC1CCC(F)(F)CC1)c1cc(C2CCOCC2)n2cccc(Cl)c12 , can you help?
Reply | 10 to 100 nM

Ask | Which measured IC50 value corresponds to COCCc1cc(C(=O)NCC2(O)CCCC(F)(F)C2)c2c(C)cccn12 (stereo not drawn) ?
Reply | 101 to 500 nM

Ask | For the molecule shown here, O=C(NCC1CCCC(F)(F)C1)c1cc(C2CCOC2)n2cccc(Cl)c12 (stereo not drawn) , give the reported IC50.
Reply | 10 to 100 nM

Ask | What value of IC50 has been recorded for this entry: COCCc1cc(C(=O)NCC2(O)CCCC(C)(C)C2)c2c(Cl)cccn12 (stereo not drawn)
Reply | 10 to 100 nM

Ask | Reported IC50 for O=C(NC[C@@]1(O)CCCC(F)(F)C1)c1cc(C2CCOC2)n2cccc(Cl)c12 (stereo partly drawn) : what is it?
Reply | 10 to 100 nM

Ask | I have this molecule here, O=C(NCC1(O)CCC(F)(F)CC1)c1cc(C2CCOCC2)n2cccc(Cl)c12 , and I need its recorded IC50.
Reply | 10 to 100 nM

Ask | Please report the recorded IC50 for COCCc1cc(C(=O)NCC2(O)CCCC(F)(F)C2)c2c(C(F)(F)F)cccn12 (stereo not drawn) .
Reply | 101 to 500 nM

Ask | Form field: reported IC50 of CC1CC(CNC(=O)c2cc(CCO)n3cccc(Cl)c23)CCC1(F)F (stereo not drawn)
Reply | < 10 nM

Ask | Item CC1CC(CNC(=O)c2cc(CCO)n3cccc(Cl)c23)CC(F)(F)C1 (stereo not drawn) has what recorded IC50?
Reply | 10 to 100 nM

Ask | So what does the record say about IC50 for CC(CO)c1cc(C(=O)NCC2CCC(F)(F)CC2)c2c(Cl)cccn12 (stereo not drawn) ?
Reply | 10 to 100 nM

Ask | Need IC50 of O=C(NCC1CCC(F)(F)CC1)c1cc(C2(O)CCOC2)n2cccc(Cl)c12 (stereo not drawn) , thanks.
Reply | 101 to 500 nM

Ask | Entry under review: COCCc1cc(C(=O)NCC2CCCCCC2)c2c(Cl)cccn12 . Reported IC50?
Reply | 10 to 100 nM

Ask | Record request: IC50 value, item O=C(NCC1CCC(F)(F)CC1)c1cc(CC2CCOC2)n2cccc(Cl)c12 (stereo not drawn)
Reply | 10 to 100 nM

Ask | // query IC50 value for entry O=C(NCC1CCC(F)(F)CC1)c1cc(C2=COCC2)n2cccc(Cl)c12
Reply | 10 to 100 nM
